subjectOfTest: farnesyl protein transferase (FPT), partially purified from rat brain (Rattus norvegicus, UniProt Q02293+Q04631)
Construct: were partially purified from rat brain by ammonium sulfate fractionation followed by Q-Sepharose
Sequence (Q02293 whole entry, one chain of several): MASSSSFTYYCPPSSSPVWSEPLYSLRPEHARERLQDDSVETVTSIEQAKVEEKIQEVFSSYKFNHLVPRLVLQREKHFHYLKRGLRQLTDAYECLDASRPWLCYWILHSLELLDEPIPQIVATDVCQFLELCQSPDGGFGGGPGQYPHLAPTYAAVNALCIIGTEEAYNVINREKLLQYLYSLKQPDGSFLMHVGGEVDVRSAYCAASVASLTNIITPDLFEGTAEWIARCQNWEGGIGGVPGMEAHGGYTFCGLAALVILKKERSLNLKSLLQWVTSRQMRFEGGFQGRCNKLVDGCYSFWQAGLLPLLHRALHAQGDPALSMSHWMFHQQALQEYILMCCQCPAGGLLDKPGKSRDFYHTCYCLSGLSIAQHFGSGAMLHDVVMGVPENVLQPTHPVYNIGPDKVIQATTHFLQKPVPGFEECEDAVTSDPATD
assayComment: Inhibition of farnesyl protein transferase (transfer of [3H]farnesyl to Ras-CVLS)
Assay type: biochemical
experimentalSetup: enzyme inhibition; read-out: FPT IC50
# if measured IC50 < 400 nM: yes  # else: no

>>> discretelabel("O=C(Cc1ccncc1)N1CCC(=C2c3ccc(Cl)cc3CCc3cc(Br)c(O)nc32)CC1")
"no"
>>> discretelabel("O=C(Cc1cc[n+]([O-])cc1)N1CCN([C@H]2c3ccc(Cl)cc3CCc3cccnc32)CC1")
"no"

Problem: Quick check: does "O=C(CN1C(=O)c2ccccc2C1=O)N1CCC(=C2c3ccc(Cl)cc3CCc3cccnc32)CC1" have IC50 under 400 nM?
Result: no

Problem: Quick check: does "O=C(O)c1ccc2c(c1)CCc1cccnc1C2=C1CCN(C(=O)Cc2ccncc2)CC1" have IC50 under 400 nM?
Result: no

Problem: Quick check: does CN1CCCC(NC(=O)N2CCN(C3c4ccc(Cl)cc4CCc4cccnc43)CC2)C1 (centres unmarked) have IC50 under 400 nM?
Result: no

Problem: Quick check: does "CC(C)(C(=O)N1CCC(=C2c3ccc(Cl)cc3CCc3cc(Br)cnc32)CC1)c1ccncc1" have IC50 under 400 nM?
Result: yes

Problem: Quick check: does O=C(Cc1ccc[n+]([O-])c1)N1CCC(C2c3ccc(Cl)cc3C=Cc3cc(Br)cnc32)CC1 (centres unmarked) have IC50 under 400 nM?
Result: yes
